Just for reference, patent US20110038885A1 is where these values come from.

Tested on: IL-8
Experiment Summary: In vitro chemotaxis, inhibition v IL-8
Format: cell-based, human
Set-up: concentration or dose not given beside the values
Bridge positions count the residues as written; N and C are the ends. Square brackets hold non-standard residues; d marks the D form. Peptide text beside a SMILES is read from it. AEEA = NCCOCCOCC(=O)O; Aoc = NCCCCCCCC(=O)O
Parameter: v IL-8 inhibition (%)
One number for each entry, in %.

Reference set, count: 6
molecule="CC[C@H](C)[C@@H]1NC(=O)[C@H](Cc2c[nH]c3ccccc23)NC(=O)[C@H](CCCCN)NC(=O)[C@H](CCC(N)=O)NC(=O)[C@H](CCCCN)NC(=O)[C@@H](N)CSSC[C@@H](C(N)=O)NC(=O)[C@H](CCC(N)=O)NC1=O [Example 49, c(Cys-Lys-Gln-Lys-Trp-Ile-Gln-Cys)-NH2] (H-CKQKWIQC-NH2; disulfide 1-8)" experimental_system=IL-8 parameter="v IL-8 inhibition (%)" experimental_result=72.6
molecule="CC[C@H](C)[C@@H]1NC(=O)[C@H](Cc2c[nH]c3ccccc23)NC(=O)[C@H](CCCCN)NC(=O)[C@H](CCC(N)=O)NC(=O)[C@H](CCCCN)NC(=O)[C@@H]2CCCN2C(=O)[C@@H](NC(=O)[C@H](CC(=O)O)NC(=O)[C@@H](N)CC(C)C)CSSC[C@@H](C(N)=O)NC(=O)[C@H](CCC(N)=O)NC1=O [Example 11] (H-LDCPKQKWIQC-NH2; disulfide 3-11)" experimental_system=IL-8 parameter="v IL-8 inhibition (%)" experimental_result=38.1
molecule="CC[C@H](C)[C@@H]1NC(=O)[C@H](Cc2c[nH]c3ccccc23)NC(=O)[C@H](CCCCN)NC(=O)[C@H](CCC(N)=O)NC(=O)[C@H](CCCCN)NC(=O)[C@@H]2CCCN2C(=O)[C@H](CC(=O)O)NC(=O)[C@H](CC(C)C)NC(=O)[C@@H](NC(=O)[C@H](CCCCN)NC(C)=O)CSSC[C@@H](C(N)=O)NC(=O)[C@H](CCC(N)=O)NC1=O [Example 34] (Ac-KCLDPKQKWIQC-NH2; disulfide 2-12)" experimental_system=IL-8 parameter="v IL-8 inhibition (%)" experimental_result=75.7
molecule="CC[C@H](C)[C@@H]1NC(=O)[C@H](Cc2c[nH]c3ccccc23)NC(=O)[C@@H](NC(=O)[C@@H](N)CCCCN)CSSC[C@@H](C(N)=O)NC(=O)[C@H](CCC(N)=O)NC1=O [Example 51, Lys-c(Cys-Trp-Ile-Gln-Cys)-NH2] (H-KCWIQC-NH2; disulfide 2-6)" experimental_system=IL-8 parameter="v IL-8 inhibition (%)" experimental_result=115.9
molecule="CC[C@H](C)[C@@H]1NC(=O)[C@H](Cc2c[nH]c3ccccc23)NC(=O)[C@H](CCCCN)NC(=O)[C@@H](N)CSSC[C@@H](C(N)=O)NC(=O)[C@H](CCC(N)=O)NC1=O [Example 1, c(Cys-Lys-Trp-Ile-Gln-Cys)-NH2] (H-CKWIQC-NH2; disulfide 1-6)" experimental_system=IL-8 parameter="v IL-8 inhibition (%)" experimental_result=86.7
molecule="CC[C@H](C)[C@@H]1NC(=O)[C@H](Cc2c[nH]c3ccccc23)NC(=O)[C@H](CCCCN)NC(=O)[C@H](CCC(N)=O)NC(=O)[C@H](CCCCN)NC(=O)[C@@H]2CCCN2C(=O)[C@H](CC(=O)O)NC(=O)[C@H](CC(C)C)NC(=O)[C@H](N)CSSC[C@@H](C(N)=O)NC(=O)[C@H](CCC(N)=O)NC1=O [Example 39] (H-[dC]LDPKQKWIQC-NH2; disulfide 1-11)" experimental_system=IL-8 parameter="v IL-8 inhibition (%)" experimental_result=3.8

Give measured v IL-8 inhibition (%) for every item shown.
1. CC[C@H](C)[C@@H]1NC(=O)[C@H](Cc2c[nH]c3ccccc23)NC(=O)[C@H](CCCCN)NC(=O)[C@@H](CCC(N)=O)NC(=O)[C@H](CCCCN)NC(=O)[C@@H]2CCCN2C(=O)[C@H](CC(=O)O)NC(=O)[C@H](CC(C)C)NC(=O)[C@@H](NC(C)=O)CSSC[C@@H](C(N)=O)NC(=O)[C@H](CCC(N)=O)NC1=O [Example 28] (Ac-CLDPK[dQ]KWIQC-NH2; disulfide 1-11)
2. CC[C@H](C)[C@@H]1NC(=O)[C@H](Cc2c[nH]c3ccccc23)NC(=O)[C@H](CCCCN)NC(=O)[C@H](CCC(N)=O)NC(=O)[C@H](CCCCN)NC(=O)[C@H]2CCCN2C(=O)[C@H](CC(=O)O)NC(=O)[C@H](CC(C)C)NC(=O)[C@@H](NC(C)=O)CSSC[C@@H](C(N)=O)NC(=O)[C@H](CCC(N)=O)NC1=O [Example 30] (Ac-CLD[dP]KQKWIQC-NH2; disulfide 1-11)
3. CC(C)(C)OC(=O)N[C@@H](Cc1c[nH]c2ccccc12)C(=O)NCC(=O)NC1CCC(=O)NC1=O (stereo partly drawn) [Example 163, BOC-Trp-Gly-α-aminoglutaramide]
4. CC[C@@H](C)[C@H]1NC(=O)[C@H](Cc2c[nH]c3ccccc23)NC(=O)[C@H](CCCCN)NC(=O)[C@H](CCC(N)=O)NC(=O)[C@H](CCCCN)NC(=O)[C@@H]2CCCN2C(=O)[C@H](CC(=O)O)NC(=O)[C@H](CC(C)C)NC(=O)[C@@H](NC(C)=O)CSSC[C@@H](C(N)=O)NC(=O)[C@H](CCC(N)=O)NC1=O [Example 25] (Ac-CLDPKQKW[dI]QC-NH2; disulfide 1-11)
5. CC[C@@H](C)[C@H]1NC(=O)[C@@H](CCC(N)=O)NC(=O)[C@H](N)CSSC[C@H](C(=O)NCCOCCOCC(=O)NCCCCCCCC(=O)O)NC(=O)[C@@H](CC(C)C)NC(=O)[C@@H](CC(=O)O)NC(=O)[C@H]2CCCN2C(=O)[C@@H](CCCCN)NC(=O)[C@@H](CCC(N)=O)NC(=O)[C@@H](CCCCN)NC(=O)[C@@H](Cc2c[nH]c3ccccc23)NC1=O [Example 138] (H-[dC][dQ][dI][dW][dK][dQ][dK][dP][dD][dL][dC][AEEA][Aoc]-OH; disulfide 1-11)

Data returned:
1: 96.9; 2: 99.2; 3: 105.7; 4: 96.9; 5: 98.4
